The measured values listed here are drawn from ChEMBL document CHEMBL1148518.

Recorded pIC50 for the following molecules
target: Stromelysin-1 (Homo sapiens, UniProt P08254)
Sequence (P08254 whole entry): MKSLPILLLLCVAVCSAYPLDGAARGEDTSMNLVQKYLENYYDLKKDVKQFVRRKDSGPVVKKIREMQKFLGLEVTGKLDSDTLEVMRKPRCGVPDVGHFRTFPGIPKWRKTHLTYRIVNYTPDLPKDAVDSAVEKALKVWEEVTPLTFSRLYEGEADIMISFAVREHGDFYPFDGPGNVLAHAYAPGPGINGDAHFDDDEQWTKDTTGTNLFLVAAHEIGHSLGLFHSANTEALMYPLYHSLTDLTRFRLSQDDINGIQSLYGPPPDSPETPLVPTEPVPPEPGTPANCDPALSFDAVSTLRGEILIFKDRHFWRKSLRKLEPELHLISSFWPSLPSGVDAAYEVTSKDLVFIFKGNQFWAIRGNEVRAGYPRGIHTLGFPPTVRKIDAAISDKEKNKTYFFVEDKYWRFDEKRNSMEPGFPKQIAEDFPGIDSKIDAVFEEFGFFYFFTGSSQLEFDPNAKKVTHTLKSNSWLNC
pIC50: −log10 of the molar value.
outcome.measure: pIC50

[
  {
    "molecule": "O=C(O)C(CCN1C(=O)c2ccccc2C1=O)S(=O)(=O)c1ccc(-c2nc3ccc(F)cc3[nH]2)cc1 (configuration not stated)",
    "reported": 7.47
  },
  {
    "molecule": "Cc1ccc(C#Cc2ccc(S(=O)(=O)C(CCN3C(=O)c4ccccc4C3=O)C(=O)O)cc2)cc1 (configuration not stated)",
    "reported": 7.55
  }
]

###

assay: Apparent elimination half life in rat at 0.5 mg/kg, iv; assay type: ADME, organism-based; parameters: dose 0.5 mg/kg, route intravenous; conditions: in vivo

[
  {
    "molecule": "O=C(NO)C(CCN1C(=O)c2ccccc2C1=O)S(=O)(=O)c1ccc(-c2ccc(Cl)cc2)cc1 (stereo unspecified)",
    "half-life [min]": 58.8
  }
]

###

Recorded below: log10(IC50), system 72 kDa type IV collagenase (Homo sapiens, UniProt P08253).
outcome.measure: log10(IC50) (log10 of the value in nM)

[
  {
    "compound": "O=C(O)C(CCN1Cc2ccccc2C1=O)S(=O)(=O)c1ccc(-c2ccc(Cl)cc2)cc1 (stereo unspecified)",
    "reported": 0.93
  },
  {
    "compound": "Cc1ccc(C#Cc2ccc(SC(CCN3C(=O)c4ccccc4C3=O)C(=O)O)cc2)cc1 (stereo unspecified)",
    "reported": 1.52
  },
  {
    "compound": "N#Cc1ccc(N2CCN(c3ccc(S(=O)(=O)C(CCN4C(=O)c5ccccc5C4=O)C(=O)O)cc3)CC2)cc1 (stereo unspecified)",
    "reported": 0.83
  },
  {
    "compound": "CC(CCN1C(=O)c2ccccc2C1=O)(C(=O)O)S(=O)(=O)c1ccc(-c2ccc(Cl)cc2)cc1 (stereo unspecified)",
    "reported": 1.72
  },
  {
    "compound": "O=C(O)C(CCN1C(=O)c2ccccc2C1=O)Sc1ccc(C#Cc2ccc(Cl)cc2)cc1 (stereo unspecified)",
    "reported": 0.28
  },
  {
    "compound": "O=C(NO)C(CCN1C(=O)c2ccccc2C1=O)S(=O)(=O)c1ccc(-c2ccc(Cl)cc2)cc1 (stereo unspecified)",
    "reported": -0.21
  }
]

###

Recorded below: IC50, system Interstitial collagenase (Homo sapiens, UniProt P03956).

[
  {
    "compound": "O=C(O)C(CCN1C(=O)c2ccccc2C1=O)S(=O)(=O)c1ccc(-c2nc3ccc(F)cc3[nH]2)cc1 (configuration not stated)",
    "IC50": "> 1 µM"
  },
  {
    "compound": "Cc1ccc(C#Cc2ccc(S(=O)(=O)C(CCN3C(=O)c4ccccc4C3=O)C(=O)O)cc2)cc1 (configuration not stated)",
    "IC50": "> 1 µM"
  }
]

###

Recorded below: pIC50, system Collagenase 3 (Homo sapiens, UniProt P45452).
pIC50: −log10 of the molar value.

[
  {
    "molecule": "O=C(O)C(CCN1C(=O)c2ccccc2C1=O)S(=O)(=O)c1ccc(-c2nc3ccc(F)cc3[nH]2)cc1 (configuration not stated)",
    "pIC50": 9.10
  },
  {
    "molecule": "Cc1ccc(C#Cc2ccc(S(=O)(=O)C(CCN3C(=O)c4ccccc4C3=O)C(=O)O)cc2)cc1 (configuration not stated)",
    "pIC50": 8.85
  }
]

###

biological target: 72 kDa type IV collagenase (Homo sapiens, UniProt P08253)
Sequence (P08253 whole entry): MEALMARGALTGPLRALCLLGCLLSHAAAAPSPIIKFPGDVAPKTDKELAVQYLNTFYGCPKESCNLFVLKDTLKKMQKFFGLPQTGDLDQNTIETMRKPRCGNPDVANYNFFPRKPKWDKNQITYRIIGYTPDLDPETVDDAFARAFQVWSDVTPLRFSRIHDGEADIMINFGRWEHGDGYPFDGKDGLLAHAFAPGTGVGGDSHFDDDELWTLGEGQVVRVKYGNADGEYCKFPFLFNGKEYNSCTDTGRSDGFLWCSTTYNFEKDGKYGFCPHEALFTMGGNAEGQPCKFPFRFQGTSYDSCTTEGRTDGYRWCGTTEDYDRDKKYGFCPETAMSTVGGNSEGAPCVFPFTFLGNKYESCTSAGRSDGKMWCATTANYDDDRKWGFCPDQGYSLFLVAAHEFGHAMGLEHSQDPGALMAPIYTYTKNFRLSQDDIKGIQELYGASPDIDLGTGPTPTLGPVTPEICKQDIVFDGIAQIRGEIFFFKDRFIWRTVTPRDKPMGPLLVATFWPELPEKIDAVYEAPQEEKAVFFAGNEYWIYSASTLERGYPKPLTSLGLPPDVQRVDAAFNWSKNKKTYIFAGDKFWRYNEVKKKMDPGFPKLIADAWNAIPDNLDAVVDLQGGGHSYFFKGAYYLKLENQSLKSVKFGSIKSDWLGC
outcome.measure: IC50 (nM)

[
  {
    "compound": "O=C(O)C(CCN1C(=O)c2ccccc2C1=O)S(=O)(=O)c1ccc(-c2nc3ccc(F)cc3[nH]2)cc1 (stereo not drawn)",
    "study.system": "72 kDa type IV collagenase (Homo sapiens, UniProt P08253)",
    "outcome.measure": "IC50",
    "reported": 0.7
  },
  {
    "compound": "O=C(O)C(CCN1C(=O)c2ccccc2C1=O)S(=O)(=O)c1ccc(Oc2ccc(OC(F)(F)F)cc2)cc1 (stereo not drawn)",
    "study.system": "72 kDa type IV collagenase (Homo sapiens, UniProt P08253)",
    "outcome.measure": "IC50",
    "reported": 19
  },
  {
    "compound": "O=C(O)C(CCN1C(=O)c2ccccc2C1=O)S(=O)(=O)c1ccc(-c2ccc(Cl)cc2)cc1 (stereo not drawn)",
    "study.system": "72 kDa type IV collagenase (Homo sapiens, UniProt P08253)",
    "outcome.measure": "IC50",
    "reported": 1.8
  },
  {
    "compound": "CCc1ccc(C#Cc2ccc(SC(CCN3C(=O)c4ccccc4C3=O)C(=O)O)cc2)cc1 (stereo not drawn)",
    "study.system": "72 kDa type IV collagenase (Homo sapiens, UniProt P08253)",
    "outcome.measure": "IC50",
    "reported": 1.3
  },
  {
    "compound": "Cc1ccc(C#Cc2ccc([S+]([O-])C(CCN3C(=O)c4ccccc4C3=O)C(=O)O)cc2)cc1 (stereo not drawn)",
    "study.system": "72 kDa type IV collagenase (Homo sapiens, UniProt P08253)",
    "outcome.measure": "IC50",
    "reported": 1.5
  },
  {
    "compound": "Cc1ccc(C#Cc2ccc(S(=O)(=O)C(CCN3C(=O)c4ccccc4C3=O)C(=O)O)cc2)cc1 (stereo not drawn)",
    "study.system": "72 kDa type IV collagenase (Homo sapiens, UniProt P08253)",
    "outcome.measure": "IC50",
    "reported": 0.7
  },
  {
    "compound": "CSc1ccc(-c2ccc(S(=O)(=O)C(CCN3C(=O)c4ccccc4C3=O)C(=O)O)cc2)cc1 (stereo not drawn)",
    "study.system": "72 kDa type IV collagenase (Homo sapiens, UniProt P08253)",
    "outcome.measure": "IC50",
    "reported": 0.74
  },
  {
    "compound": "CCCc1ccc(C#Cc2ccc(SC(CCN3C(=O)c4ccccc4C3=O)C(=O)O)cc2)cc1 (stereo not drawn)",
    "study.system": "72 kDa type IV collagenase (Homo sapiens, UniProt P08253)",
    "outcome.measure": "IC50",
    "reported": 1.1
  }
]

###

assay: Clearance in rat at 0.5 mg/kg, iv; assay type: ADME, organism-based; set-up: dose 0.5 mg/kg, route intravenous; details: in vivo
outcome.measure: clearance (mL/min/kg)

[
  {
    "molecule": "O=C(NO)C(CCN1C(=O)c2ccccc2C1=O)S(=O)(=O)c1ccc(-c2ccc(Cl)cc2)cc1 (stereo unspecified)",
    "units.of.measure": "mL/min/kg",
    "reported": 2.9
  }
]
